All figures here come from patent US12060349B2.

The following compounds are listed with their measured IC50 values.
# System: GM3 expression on the cell surface, B16 mouse melanoma cells
# assay explanation: cell based phenotypic assay, cell surface GM3 by antibody mediated immunofluorescence, B16 (GM3 B16 IC50)
# condition context: Mus musculus, B16 mouse melanoma cells; 50% inhibition of GM3 expression on the cell surface; read-out: GM3 B16 IC50
Numeric only. Scale: µM

>>> reported("CCC1(NC(=O)NC(C)(C)C#Cc2ccc(CCOC)cc2)CN2CCC1CC2 (stereo not shown)")
0.399
>>> reported("CC(C)(NC(=O)NC1(C)CCN2CCC1CC2)c1ccc(-c2ccc(OCCn3ccnn3)cc2)cc1 (stereo not shown)")
0.0999
>>> reported("COCCOc1ccc(-c2nc(C(C)(C)NC(=O)N3CCN4CCC3CC4)cs2)cc1")
0.369
>>> reported("COCCCc1ccc(-c2ccc(C(C)(C)NC(=O)NC3(C)CN4CCC3CC4)cc2)cc1 (stereo not shown)")
0.0307
>>> reported("CC(C)(NC(=O)NC1(C)CCN2CCC1CC2)c1ccc(Oc2ccc(C(=O)N3CCCCC3)cc2)cc1 (stereo not shown)")
0.0876
>>> reported("CC(C)(NC(=O)OC1CCN2CCC1CC2)c1ccc(-c2ccc(C(=O)N3CCCCC3)cc2)cc1 (stereo not shown)")
0.075

Challenge: Give the reported IC50 for CCC1CN(C(=O)NC2(C)CCN3CCC2CC3)CCN1c1nccc(-c2ccccc2)n1 (stereo not shown) (system: GM3 expression on the cell surface, B16 mouse melanoma cells).
Response given: 0.1

Challenge: Give the reported IC50 for O=C(NC1CN2CCC1CC2)C1(F)CCN(c2nccc(-c3ccc(OCCF)cc3)n2)CC1 (stereo not shown) (system: GM3 expression on the cell surface, B16 mouse melanoma cells).
Response given: 0.0643

----------
The following compounds are listed with their measured IC50 values.
# System: GM3 expression on the cell surface, B16 mouse melanoma cells
# assay explanation: cell based phenotypic assay, cell surface GM3 by antibody mediated immunofluorescence, B16 (GM3 B16 IC50)
# condition context: Mus musculus, B16 mouse melanoma cells; 50% inhibition of GM3 expression on the cell surface; read-out: GM3 B16 IC50
Numeric only. Scale: nM

Would you please look over these solved cases?
>>> reported("CC1(NC(=O)C2CCN(c3cncc(-c4ccc(F)cc4)n3)CC2)CN2CCC1CC2 (centres unmarked) [Example 49]")
145
>>> reported("CC1(NC(=O)C2CCN(c3ncc(Oc4ccc(F)cc4)cn3)CC2)CCN2CCC1CC2 (centres unmarked) [Example 130]")
16.9
>>> reported("COCCOCc1ccc(-c2ccnc(N3CCC(C)(C(=O)NC4(C)CCN5CCC4CC5)CC3)n2)cc1 (centres unmarked) [Example 97]")
285
>>> reported("CC1(NC(=O)C2(F)CCN(c3nccc(-c4ccc(F)cc4)n3)CC2)CN2CCC1CC2 (centres unmarked) [Example 95]")
20
>>> reported("COCCCOc1ccc(-c2ccnc(N3CCC(OC)(C(=O)NC4(C)CCN5CCC4CC5)CC3)n2)cc1 (centres unmarked) [Example 101]")
78.5
>>> reported("COCCCOc1cnc(-c2cccc(C(C)(C)NC(=O)N3CCN4CCC3CC4)c2)cn1 [Example 317]")
656
>>> reported("CC1(NC(=O)C2(F)CCN(c3nccc(-c4ccc(F)cc4)n3)CC2)CCN2CCC1CC2 (centres unmarked) [Example 94]")
14.4

Proceed to the following item.
Challenge: Any idea what its IC50 is? The compound is CCC1(NC(=O)NC(C)(C)c2ccc(-c3ccc(OCCn4ccnn4)cc3)cc2)CN2CCC1CC2 (centres unmarked) [Example 184]
Response given: 188
